molecular target: Serine/threonine-protein kinase pim-2 (Homo sapiens); conditions: at 10 µM
Measured residual activity values are reported for all entries that follow.
Form entry: value (%) — number only.

# annotated cases, reported residual activity shown
COc1ccc(COc2ccc(Cc3cnc(N)nc3N)cc2OC)cc1 = 115
O=C1Cc2c([nH]c3ccc([N+](=O)[O-])cc23)-c2ccccc2N1 = 117
O=C(c1cc2cc(O)ccc2[nH]1)c1cc2cc(O)ccc2[nH]1 = 64
O=C(Nc1ccc(Cl)cc1)c1ccccc1NCc1ccncc1 = 124
COc1ccc2c(c1)c(C1=C(c3c[nH]c4ccccc34)C(=O)NC1=O)cn2CCCN(C)C = 9

*Q* State the recorded residual activity for this entry: N#C/C(=C1/Nc2ccccc2S1)c1ccnc(NCCc2cccnc2)n1
*A* 3

*Q* State the recorded residual activity for this entry: O=C1NC(=O)C(c2cn(CCCO)c3ncccc23)=C1c1cnccn1
*A* 43

*Q* State the recorded residual activity for this entry: COc1ccc(CNC(=O)Nc2ncc([N+](=O)[O-])s2)cc1
*A* 135

*Q* State the recorded residual activity for this entry: O=C1NC(=O)c2c1c1c3ccccc3[nH]c1n1cncc21
*A* 0

*Q* State the recorded residual activity for this entry: O=C(Nc1nc2ccccc2n1CCN1CCOCC1)c1cccc([N+](=O)[O-])c1
*A* 78

*Q* State the recorded residual activity for this entry: CC(C)N(CCC(=O)c1ccc2ccccc2c1)Cc1ccccc1
*A* 127

*Q* State the recorded residual activity for this entry: O=C(O)/C=C/c1cc(Br)c(Br)c(Br)c1Br
*A* 1

*Q* State the recorded residual activity for this entry: O=C1C(Cl)=C(N2C(=O)CCC2=O)C(=O)c2ccccc21
*A* 99

*Q* State the recorded residual activity for this entry: O=C(CCCc1ccc(-c2ccccc2F)cc1)Nc1ccc(O)cc1
*A* 139

----------
biological target: Mitogen-activated protein kinase 10 (Homo sapiens) (UniProt P53779); conditions: at 10 µM
Sequence (P53779 whole entry): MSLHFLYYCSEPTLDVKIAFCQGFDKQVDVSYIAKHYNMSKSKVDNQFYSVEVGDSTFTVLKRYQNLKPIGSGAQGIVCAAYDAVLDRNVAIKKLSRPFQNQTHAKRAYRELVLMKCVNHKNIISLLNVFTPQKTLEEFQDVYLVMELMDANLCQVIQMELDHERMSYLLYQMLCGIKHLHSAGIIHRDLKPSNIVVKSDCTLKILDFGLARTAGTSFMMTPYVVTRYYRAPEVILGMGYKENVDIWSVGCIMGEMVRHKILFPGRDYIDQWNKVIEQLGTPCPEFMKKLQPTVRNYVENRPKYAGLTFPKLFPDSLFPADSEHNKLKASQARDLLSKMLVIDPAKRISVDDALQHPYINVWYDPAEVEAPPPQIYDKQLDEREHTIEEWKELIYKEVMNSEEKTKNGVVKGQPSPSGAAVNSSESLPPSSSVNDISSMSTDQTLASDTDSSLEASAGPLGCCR
Measured residual activity values are reported for all entries that follow.
Form entry: value (%) — number only.

O=C1Nc2ccccc2/C1=C\c1c(Cl)[nH]c2ccccc12 = 47

*Q* State the recorded residual activity for this entry: Nc1ncnc2c1c(-c1ccc(Oc3ccccc3)cc1)cn2C1CCCC1
*A* 81

----------
biological target: Mitogen-activated protein kinase kinase kinase 5 (Homo sapiens); settings: at 10 µM
Measured residual activity values are reported for all entries that follow.
Form entry: value (%) — number only.

*Q* State the recorded residual activity for this entry: O=c1cc(N2CCNCC2)oc2c(-c3ccccc3)cccc12
*A* 78

*Q* State the recorded residual activity for this entry: O=C1NC(=O)c2c1c1c3ccccc3[nH]c1n1cncc21
*A* 96

*Q* State the recorded residual activity for this entry: Nc1ncnc2c1cnn2-c1ccccc1
*A* 101

*Q* State the recorded residual activity for this entry: O=C(Nc1nc2ccccc2n1CCN1CCOCC1)c1cccc([N+](=O)[O-])c1
*A* 110

*Q* State the recorded residual activity for this entry: CCCCc1c(-c2ccc(O)cc2)[nH]c2nccnc12
*A* 83

*Q* State the recorded residual activity for this entry: CC(C)(C)c1nc2c3ccc(F)cc3c3c(=O)[nH]ccc3c2[nH]1
*A* 35

*Q* State the recorded residual activity for this entry: COc1cc2nccc(Oc3ccc(NC(=S)NC(=O)c4ccccc4C)cc3)c2cc1OC
*A* 77

*Q* State the recorded residual activity for this entry: COc1cc2ncnc(Nc3cccc(Cl)c3)c2cc1OC
*A* 106

*Q* State the recorded residual activity for this entry: Cn1sc(=O)n(Cc2ccccc2)c1=O
*A* 92

*Q* State the recorded residual activity for this entry: NCCNc1ncc(C(N)=O)c(Nc2cccc(C(F)(F)F)c2)n1
*A* 78

*Q* State the recorded residual activity for this entry: NC(=O)c1ccc(-c2nc(-c3ccc4c(c3)OCCO4)c(-c3ccccn3)[nH]2)cc1
*A* 96

These measurements were taken from ChEMBL document CHEMBL2218924.
